# testedSystem: Matrix metalloproteinase-9 (Homo sapiens, UniProt P14780)
# Sequence (P14780 whole entry): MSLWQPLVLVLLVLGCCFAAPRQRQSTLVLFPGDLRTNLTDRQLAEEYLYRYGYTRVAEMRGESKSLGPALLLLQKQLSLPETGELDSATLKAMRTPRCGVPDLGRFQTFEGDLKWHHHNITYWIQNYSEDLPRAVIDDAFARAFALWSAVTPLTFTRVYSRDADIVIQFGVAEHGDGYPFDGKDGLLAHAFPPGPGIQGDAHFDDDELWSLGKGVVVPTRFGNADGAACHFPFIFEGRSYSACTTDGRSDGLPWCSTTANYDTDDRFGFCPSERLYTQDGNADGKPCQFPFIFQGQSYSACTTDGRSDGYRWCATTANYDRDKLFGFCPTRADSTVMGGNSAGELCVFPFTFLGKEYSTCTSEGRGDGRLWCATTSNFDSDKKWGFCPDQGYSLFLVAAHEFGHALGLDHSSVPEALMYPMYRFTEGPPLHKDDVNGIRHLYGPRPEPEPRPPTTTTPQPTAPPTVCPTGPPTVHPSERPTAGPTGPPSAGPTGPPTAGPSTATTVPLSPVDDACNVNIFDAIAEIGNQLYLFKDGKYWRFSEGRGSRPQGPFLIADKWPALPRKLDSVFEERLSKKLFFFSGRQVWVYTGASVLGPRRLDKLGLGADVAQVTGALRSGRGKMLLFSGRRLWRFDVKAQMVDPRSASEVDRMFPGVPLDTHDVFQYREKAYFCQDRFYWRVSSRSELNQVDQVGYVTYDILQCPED
pIC50: −log10 of the molar value.

>  <testSmiles>
O=P(O)(O)C(Nc1ccc(Cl)cc1)P(=O)(O)O

>  <resultQualifier>
<

>  <pIC50>
4.00

$$$$
>  <testSmiles>
O=P(O)(O)C(Nc1ccc(Cl)c(Cl)c1)P(=O)(O)O

>  <resultQualifier>
<

>  <pIC50>
4.00

$$$$
>  <testSmiles>
O=P(O)(O)C(O)(Cn1ccnc1)P(=O)(O)O

>  <resultQualifier>
=

>  <pIC50>
4.28

$$$$
>  <testSmiles>
O=P(O)(O)C(Nc1ccc(Oc2ccc(Br)cc2)cc1)P(=O)(O)O

>  <resultQualifier>
=

>  <pIC50>
4.06

$$$$
>  <testSmiles>
O=P(O)(O)C(Nc1cccc(Br)c1)P(=O)(O)O

>  <resultQualifier>
<

>  <pIC50>
4.00

$$$$
>  <testSmiles>
O=P(O)(O)C(Nc1cccc2ccccc12)P(=O)(O)O

>  <resultQualifier>
=

>  <pIC50>
5.22

$$$$
>  <testSmiles>
O=[N+]([O-])c1cccc(NC(P(=O)(O)O)P(=O)(O)O)c1

>  <resultQualifier>
<

>  <pIC50>
4.00

$$$$

---

Observed IC50, system UniProtKB P50281.

>  <compound>
O=P(O)(O)C(Nc1cccc(C(F)(F)F)c1)P(=O)(O)O

>  <IC50>
> 100 µM

$$$$
>  <compound>
O=P(O)(O)C(Nc1cccc(Br)c1)P(=O)(O)O

>  <IC50>
> 100 µM

$$$$
>  <compound>
Cc1ccc(NC(P(=O)(O)O)P(=O)(O)O)cc1 [(P-TOLYLAMINO)METHYLENEDIPHOSPHONIC ACID]

>  <IC50>
> 100 µM

$$$$
>  <compound>
O=P(O)(O)C(Nc1cccc(-c2ccccc2)c1)P(=O)(O)O

>  <IC50>
40 µM

$$$$
>  <compound>
O=P(O)(O)C(Nc1ccc(Cl)cc1)P(=O)(O)O

>  <IC50>
> 100 µM

$$$$
>  <compound>
O=[N+]([O-])c1cccc(NC(P(=O)(O)O)P(=O)(O)O)c1

>  <IC50>
> 100 µM

$$$$

---

# testedSystem: 72 kDa type IV collagenase (Homo sapiens, UniProt P08253)
# Sequence (P08253 whole entry): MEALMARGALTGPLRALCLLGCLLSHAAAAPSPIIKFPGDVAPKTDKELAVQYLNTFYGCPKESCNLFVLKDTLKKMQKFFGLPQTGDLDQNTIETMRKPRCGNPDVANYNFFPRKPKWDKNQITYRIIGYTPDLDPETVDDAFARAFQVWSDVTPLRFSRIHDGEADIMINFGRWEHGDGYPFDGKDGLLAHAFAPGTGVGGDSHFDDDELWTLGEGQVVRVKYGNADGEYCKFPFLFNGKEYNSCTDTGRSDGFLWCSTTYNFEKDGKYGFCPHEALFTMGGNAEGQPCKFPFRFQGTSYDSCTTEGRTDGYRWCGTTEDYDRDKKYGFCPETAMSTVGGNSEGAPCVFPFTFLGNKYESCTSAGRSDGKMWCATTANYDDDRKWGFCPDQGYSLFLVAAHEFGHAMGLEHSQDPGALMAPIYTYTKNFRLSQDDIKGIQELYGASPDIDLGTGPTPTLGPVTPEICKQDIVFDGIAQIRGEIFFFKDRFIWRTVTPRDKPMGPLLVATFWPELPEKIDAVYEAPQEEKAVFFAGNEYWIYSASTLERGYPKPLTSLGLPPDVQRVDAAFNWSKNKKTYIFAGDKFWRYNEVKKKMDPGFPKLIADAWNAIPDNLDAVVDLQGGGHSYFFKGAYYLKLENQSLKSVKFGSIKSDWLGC
# experimentNotes: Inhibition of APMA-activated recombinant human MMP2 using Mca-Pro-Leu-Gly-Leu-Dpa-Ala-Arg-NH2 as substrate incubated for 30 mins prior to substrate addition measured after 2 to 4 hrs by fluorometric assay
Below, each of the compounds is paired with its reported IC50 value.
quantityKind: IC50 (µM)

>  <compound>
O=[N+]([O-])c1ccc(NC(P(=O)(O)O)P(=O)(O)O)cc1

>  <quantityKind>
IC50

>  <unitsOfMeasure>
µM

>  <resultQualifier>
=

>  <endpointResult>
20

$$$$
>  <compound>
O=[N+]([O-])c1cc(NC(P(=O)(O)O)P(=O)(O)O)ccc1F

>  <quantityKind>
IC50

>  <unitsOfMeasure>
µM

>  <resultQualifier>
=

>  <endpointResult>
25

$$$$
>  <compound>
O=P(O)(O)C(Nc1cccc(F)c1)P(=O)(O)O

>  <quantityKind>
IC50

>  <unitsOfMeasure>
µM

>  <resultQualifier>
=

>  <endpointResult>
42

$$$$
>  <compound>
O=P(O)(O)C(Nc1ccc(Cl)cc1)P(=O)(O)O

>  <quantityKind>
IC50

>  <unitsOfMeasure>
µM

>  <resultQualifier>
>

>  <endpointResult>
100

$$$$
>  <compound>
O=P(O)(O)C(Nc1ccc(F)cc1)P(=O)(O)O

>  <quantityKind>
IC50

>  <unitsOfMeasure>
µM

>  <resultQualifier>
=

>  <endpointResult>
28.2

$$$$
>  <compound>
O=P(O)(O)C(Nc1ccc(Cl)cc1Cl)P(=O)(O)O

>  <quantityKind>
IC50

>  <unitsOfMeasure>
µM

>  <resultQualifier>
>

>  <endpointResult>
100

$$$$
>  <compound>
O=P(O)(O)C(Nc1cccc2ccccc12)P(=O)(O)O

>  <quantityKind>
IC50

>  <unitsOfMeasure>
µM

>  <resultQualifier>
=

>  <endpointResult>
6.4

$$$$
>  <compound>
Cc1ccc(NC(P(=O)(O)O)P(=O)(O)O)cc1 [(P-TOLYLAMINO)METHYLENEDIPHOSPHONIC ACID]

>  <quantityKind>
IC50

>  <unitsOfMeasure>
µM

>  <resultQualifier>
>

>  <endpointResult>
100

$$$$
>  <compound>
O=P(O)(O)C(Nc1ccccc1)P(=O)(O)O [(PHENYLAMINO)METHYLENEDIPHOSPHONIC ACID]

>  <quantityKind>
IC50

>  <unitsOfMeasure>
µM

>  <resultQualifier>
>

>  <endpointResult>
100

$$$$
>  <compound>
O=P(O)(O)C(Nc1ccc(C(F)(F)F)cc1)P(=O)(O)O

>  <quantityKind>
IC50

>  <unitsOfMeasure>
µM

>  <resultQualifier>
=

>  <endpointResult>
15

$$$$
>  <compound>
N#Cc1ccc(NC(P(=O)(O)O)P(=O)(O)O)cc1

>  <quantityKind>
IC50

>  <unitsOfMeasure>
µM

>  <resultQualifier>
=

>  <endpointResult>
36

$$$$
>  <compound>
O=P(O)(O)C(Nc1ccc(Oc2ccccc2)cc1)P(=O)(O)O

>  <quantityKind>
IC50

>  <unitsOfMeasure>
µM

>  <resultQualifier>
=

>  <endpointResult>
2.8

$$$$
>  <compound>
O=P(O)(O)C(Nc1ccc(Oc2ccc(Br)cc2)cc1)P(=O)(O)O

>  <quantityKind>
IC50

>  <unitsOfMeasure>
µM

>  <resultQualifier>
=

>  <endpointResult>
2.8

$$$$
>  <compound>
O=P(O)(O)C(Nc1cccc(C(F)(F)F)c1)P(=O)(O)O

>  <quantityKind>
IC50

>  <unitsOfMeasure>
µM

>  <resultQualifier>
=

>  <endpointResult>
20.8

$$$$
>  <compound>
O=P(O)(O)C(Nc1ccc(-c2ccccc2)cc1)P(=O)(O)O

>  <quantityKind>
IC50

>  <unitsOfMeasure>
µM

>  <resultQualifier>
>

>  <endpointResult>
100

$$$$
>  <compound>
O=P(O)(O)C(O)(Cn1ccnc1)P(=O)(O)O [ZOLEDRONIC ACID]

>  <quantityKind>
IC50

>  <unitsOfMeasure>
µM

>  <resultQualifier>
=

>  <endpointResult>
7

$$$$
>  <compound>
O=P(O)(O)C(Nc1cccc(Br)c1)P(=O)(O)O

>  <quantityKind>
IC50

>  <unitsOfMeasure>
µM

>  <resultQualifier>
=

>  <endpointResult>
37.4

$$$$
>  <compound>
O=P(O)(O)C(Nc1ccc(Br)cc1)P(=O)(O)O

>  <quantityKind>
IC50

>  <unitsOfMeasure>
µM

>  <resultQualifier>
=

>  <endpointResult>
6

$$$$
>  <compound>
O=P(O)(O)C(Nc1ccc(Cl)c(Cl)c1)P(=O)(O)O

>  <quantityKind>
IC50

>  <unitsOfMeasure>
µM

>  <resultQualifier>
>

>  <endpointResult>
100

$$$$
>  <compound>
O=P(O)(O)C(Nc1ccc(Oc2ccc(Cl)cc2)cc1)P(=O)(O)O

>  <quantityKind>
IC50

>  <unitsOfMeasure>
µM

>  <resultQualifier>
=

>  <endpointResult>
2.1

$$$$
>  <compound>
O=[N+]([O-])c1cccc(NC(P(=O)(O)O)P(=O)(O)O)c1

>  <quantityKind>
IC50

>  <unitsOfMeasure>
µM

>  <resultQualifier>
=

>  <endpointResult>
15.5

$$$$
>  <compound>
O=P(O)(O)C(Sc1ccc(Cl)cc1)P(=O)(O)O [TILUDRONIC ACID]

>  <quantityKind>
IC50

>  <unitsOfMeasure>
µM

>  <resultQualifier>
=

>  <endpointResult>
7.2

$$$$
>  <compound>
O=P(O)(O)C(Nc1cccc(-c2ccccc2)c1)P(=O)(O)O

>  <quantityKind>
IC50

>  <unitsOfMeasure>
µM

>  <resultQualifier>
>

>  <endpointResult>
100

$$$$
>  <compound>
O=P(O)(O)C(Nc1ccc(O)cc1)P(=O)(O)O

>  <quantityKind>
IC50

>  <unitsOfMeasure>
µM

>  <resultQualifier>
=

>  <endpointResult>
6.6

$$$$

---

pIC50: −log10 of the molar value.
Observed pIC50, system Matrix metalloproteinase-14 (Homo sapiens).
quantityKind: pIC50

>  <compound>
O=P(O)(O)C(Nc1cccc(F)c1)P(=O)(O)O

>  <resultQualifier>
<

>  <endpointResult>
4.00

$$$$
>  <compound>
O=P(O)(O)C(Nc1ccc(Cl)c(Cl)c1)P(=O)(O)O

>  <resultQualifier>
=

>  <endpointResult>
4.70

$$$$
>  <compound>
O=P(O)(O)C(Nc1ccc(O)cc1)P(=O)(O)O

>  <resultQualifier>
<

>  <endpointResult>
4.00

$$$$
>  <compound>
O=P(O)(O)C(Nc1ccc(Oc2ccc(Cl)cc2)cc1)P(=O)(O)O

>  <resultQualifier>
=

>  <endpointResult>
4.12

$$$$
>  <compound>
O=P(O)(O)C(Nc1ccc(F)cc1)P(=O)(O)O

>  <resultQualifier>
<

>  <endpointResult>
4.00

$$$$
>  <compound>
O=P(O)(O)C(Nc1ccc(Oc2ccc(Br)cc2)cc1)P(=O)(O)O

>  <resultQualifier>
=

>  <endpointResult>
4.31

$$$$
>  <compound>
O=P(O)(O)C(O)(Cn1ccnc1)P(=O)(O)O [ZOLEDRONIC ACID]

>  <resultQualifier>
=

>  <endpointResult>
4.90

$$$$
>  <compound>
O=P(O)(O)C(Nc1ccc(C(F)(F)F)cc1)P(=O)(O)O

>  <resultQualifier>
<

>  <endpointResult>
4.00

$$$$
>  <compound>
O=P(O)(O)C(Sc1ccc(Cl)cc1)P(=O)(O)O [TILUDRONIC ACID]

>  <resultQualifier>
=

>  <endpointResult>
4.52

$$$$
>  <compound>
O=P(O)(O)C(Nc1ccccc1)P(=O)(O)O [(PHENYLAMINO)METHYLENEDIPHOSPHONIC ACID]

>  <resultQualifier>
<

>  <endpointResult>
4.00

$$$$
>  <compound>
O=P(O)(O)C(Nc1ccc(Cl)cc1Cl)P(=O)(O)O

>  <resultQualifier>
<

>  <endpointResult>
4.00

$$$$
